# Test system: N. caninum tachyzoites
# assay name: N. caninum β-galactosidase reporter strain proliferation in HFF (screen and inhibition curves)
# Format: cell-based
# recorded conditions: Neospora caninum, 72 h, 3 days, concentration range 0–250 nM, with 95% confidence intervals
measured attribute: pIC50
Friendly reminder that pIC50 comes from taking -log10 of the concentration in mol/L.

O=C1c2ccc3c4c(ccc(c24)C(=O)N1CCCCO)C(=O)N(CCCCO)C3=O : 6.82

Please give measured pIC50 of the following entry: CN(C)c1ccc(C(O)(c2ccc(N(C)C)cc2)c2ccc(N(C)C)cc2)cc1
7.60

Given COc1ccc(C(=O)NC(c2ccc(Cl)cc2Cl)c2cc(Cl)c3cccnc3c2O)cc1 (centres unmarked) , respond with its pIC50.
7.10

Identify measured pIC50 associated with O=C(Nc1cccc(C(F)(F)F)c1)c1cc(Cl)ccc1O
7.15

Read off the recorded pIC50 for CCCOCc1cc(CN2CCN(c3cccc(Cl)c3)CC2)c(O)c2ncccc12
7.00
